Tested on: OVCAR-3 ovarian
Test: NCI-60 one-dose screen, 48 h (100 = growth as untreated, 0 = no growth, -100 = all killed)
Conditions: 10 µM unless noted
Compounds without any hit were thinned out: in the full panel of roughly 83,000, 20% have a hit.
Threshold 90%: growth strictly smaller gives Yes, otherwise No.

In the record for COC(=O)C[C@@H]1CC=CC(=O)/C1=C(O)/C=C/c1ccccc1 , is growth less than 90%? Yes

Consider COc1cc(/C=C/C(=O)Nc2ccc3c(c2)/C(=C\c2cccn2C)C(=O)N3)cc(OC)c1OC . Does its growth lie strictly below 90%? Yes

growth under 90%? Item: O=C1Cc2cc(CCn3cncn3)c(Cl)cc2N1 Yes

Dear colleague, could you confirm whether growth of Fc1ccc(-c2nnc(/C=C/c3cn(-c4ccccc4)nc3-c3ccccc3)o2)cc1 falls below 90%? Thanks. No

Answer whether the molecule O=C1/C(=C/c2ccc([N+](=O)[O-])o2)Oc2ccc(Cl)cc21 has growth strictly less than 90% Yes

Is 90% strictly greater than the molecule's reported growth? molecule: CC12CCC3C(CCC4CC(=O)/C(=C\O)CC43C)C1CCC(=O)O2 (stereo not drawn) No

Check if growth falls below 90% for CCCCCCCCSc1ncnc2c1ncn2CO . Yes

Field: below-cutoff. Rule: recorded growth strictly less than 90%. Subject: Cc1cc(O)c2c(c1)C[C@H]1[C@@H]3CC[C@H]4CC(=O)CC[C@]4(C)[C@H]3CC(=O)[C@]21C No

Is the reported growth for CN1COc2ccc3ccccc3c2C1 strictly below 90%? No

Lab note: growth threshold 90%. Does this molecule come in strictly under it? CCN(CC)CCOc1ccc(C2=C(c3ccccc3)CCc3cc(OC)ccc32)cc1 Yes

Regarding C[C@]12CC[C@@H]3c4ccc(O)cc4CC[C@H]3[C@@H]1CC[C@@H]2NS(=O)(=O)c1cccc(Br)c1 , kindly confirm whether its growth is beneath 90%. Yes
